Assignment: determine reported T/C for the given compounds.
System: L1210 leukemia ip in BDF1 mice, survival T/C
Assay: NCI In Vivo Anticancer Drug Screen. Data for tumor model L1210 Leukemia (intraperitoneal) in B6D2F1 (BDF1) mice
Details: endpoint: mean survival time; dose: 400.0 mg/kg/injection; schedule: Q01DX009 (ip); vehicle: Klucel (hydroxypropylcellulose) (HPC); higher = longer survival
Toxic doses and inconclusive results are not listed.

Ask: Item `COc1cc(NS(=O)(=O)c2ccc(C(C)=O)cc2)nc(OC)n1` has what recorded T/C?
Result: 98 % of control

Ask: Okay, and `Cc1ccc(Cl)c(NC(=O)Nc2cccc(C(F)(F)F)c2)c1` ?
Result: 90 % of control

Ask: Okay, and CCOC(=O)c1[nH]c2c(c1CC(CC)[N+](=O)[O-])CCCC2 (configuration not stated) ?
Result: 101 % of control

Ask: Okay, and `CC(=O)c1ccc(OS(=O)(=O)c2ccc([N+](=O)[O-])cc2)cc1` ?
Result: 86 % of control

Ask: Okay, and `CCOC(=O)c1cnn(-c2ccccc2)c1N` ?
Result: 102 % of control

Ask: Okay, and `Cc1cc(N(C)C)ccc1C=O` ?
Result: 103 % of control

Ask: Okay, and `CCOC(=O)CSC(=S)N(C)C` ?
Result: 89 % of control

Ask: Okay, and `COc1ccc(CCN=Cc2ccc(Cl)cc2)cc1OC` ?
Result: 95 % of control

Ask: Okay, and `COc1ccccc1NC(=O)Nc1ccc(F)cc1` ?
Result: 108 % of control

Ask: Okay, and `O=C(O)c1ccc(NC(=O)c2cccc(F)c2)cc1` ?
Result: 101 % of control

Ask: Okay, and `CCOc1ccc(/C=N/NC(=O)CCCCCCCCC(=O)N/N=C/c2ccc(OCC)c(OC)c2)cc1OC` ?
Result: 97 % of control

Ask: Okay, and `Cc1ccccc1NC(=S)N1CCOCC1` ?
Result: 111 % of control
